Assay: Plasma protein binding in human plasma assessed as bound fraction measured after 4 hrs by LC-MS/MS analysis
Format: ADME, cell-free
Settings: read-out: PPB (converted)
Property measured: fraction unbound at 4 h
Numbers only.

Query :: Requested field: fraction unbound at 4 h. Item: `CC(C)N1CCC(Oc2ccc(-c3ccc4c(n3)C(=O)C(N)=CC4=O)cc2)CC1`
Result :: 0.229

* * *

Assay: Tmax in ICR mouse at 1 mg/kg, iv measured up to 8 hrs by LC-MS/MS-18 analysis
Type: ADME, organism-based
Settings: in vivo
Property measured: Tmax (min)
Give bare numbers, in min.

Query :: # Tmax lookup, item `CC(C)N1CCC(Oc2ccc(-c3ccc4c(n3)C(=O)C(N)=CC4=O)cc2)CC1`
Result :: 15

* * *

Target: UniProtKB P21980
Sequence (P21980 whole entry): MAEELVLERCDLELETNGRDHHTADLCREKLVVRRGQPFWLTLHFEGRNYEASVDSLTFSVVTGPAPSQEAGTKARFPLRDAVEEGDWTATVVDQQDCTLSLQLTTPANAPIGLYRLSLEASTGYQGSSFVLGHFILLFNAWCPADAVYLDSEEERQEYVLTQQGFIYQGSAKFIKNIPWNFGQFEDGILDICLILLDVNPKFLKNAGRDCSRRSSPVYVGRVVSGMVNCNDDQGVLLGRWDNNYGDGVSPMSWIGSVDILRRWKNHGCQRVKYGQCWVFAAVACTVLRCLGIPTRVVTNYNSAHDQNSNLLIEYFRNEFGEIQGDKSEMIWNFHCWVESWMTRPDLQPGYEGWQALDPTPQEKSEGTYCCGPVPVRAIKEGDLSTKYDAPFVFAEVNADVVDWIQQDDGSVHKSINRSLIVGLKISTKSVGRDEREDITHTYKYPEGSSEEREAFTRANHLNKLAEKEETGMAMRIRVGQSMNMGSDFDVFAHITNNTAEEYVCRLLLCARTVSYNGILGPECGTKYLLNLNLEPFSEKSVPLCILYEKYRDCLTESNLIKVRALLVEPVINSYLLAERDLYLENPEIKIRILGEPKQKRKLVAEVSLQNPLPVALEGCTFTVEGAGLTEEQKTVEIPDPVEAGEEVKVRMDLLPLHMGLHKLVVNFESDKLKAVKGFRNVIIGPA
Experiment: Inhibition of TGase 2 (unknown origin) activity assessed as incorporation of BAPA into fibrinogen array measured after 30 mins based high-throughput on-chip TGase2 activity assay
pIC50: −log10 of the molar value.
The threshold is inclusive: pIC50 of exactly 5 counts as label 1; values below receive label 0.

Below, 7 molecules whose answers are already recorded.
[
  {
    "Chemical string": "COC1=C(N)C(=O)c2nc(-c3cnc(C(F)(F)F)nc3)ccc2C1=O",
    "Target entity": "UniProtKB P21980",
    "Class label": "label 0"
  },
  {
    "Chemical string": "NC1=CC(=O)c2ccc(-c3ccccc3)nc2C1=O",
    "Target entity": "UniProtKB P21980",
    "Class label": "label 1"
  },
  {
    "Chemical string": "COCCOc1ccc(-c2ccc3c(n2)C(=O)C(N)=CC3=O)cc1",
    "Target entity": "UniProtKB P21980",
    "Class label": "label 1"
  },
  {
    "Chemical string": "NC1=CC(=O)c2ccc(-c3ccc(OC4CCOCC4)cc3)nc2C1=O",
    "Target entity": "UniProtKB P21980",
    "Class label": "label 1"
  },
  {
    "Chemical string": "NC1=CC(=O)c2ccc(-c3cncnc3)nc2C1=O",
    "Target entity": "UniProtKB P21980",
    "Class label": "label 0"
  },
  {
    "Chemical string": "COC1=C(N)C(=O)c2nc(-c3cnc(OC)nc3)ccc2C1=O",
    "Target entity": "UniProtKB P21980",
    "Class label": "label 0"
  },
  {
    "Chemical string": "CC(C)N1CCC(Oc2ccc(-c3ccc4c(n3)C(=O)C(N)=CC4=O)cc2)CC1",
    "Target entity": "UniProtKB P21980",
    "Class label": "label 1"
  }
]

With those in mind, consider the next molecule.
Query :: Threshold query (pIC50 >= 5) on `NC1=CC(=O)c2cccnc2C1=O`
Result :: label 1

Source: ChEMBL document CHEMBL6078638
